Recorded TGI for the following molecules
# Test system: MCF7 breast
# Assay details: NCI tumour cell line growth inhibition, 48 h
Endpoint label: TGI

molecule=CC1(C)C=[N+]([O-])C(C)(C)N1O reported="> 10 µM"
molecule=CC1=CC[C@](C)(O)[C@@]2(C)CC[C@H]3C(=C(C)C)C(=O)C[C@]3(C)C[C@H]12 reported="> 50 µM"
molecule=O=c1oc2cccnc2n1CCCCN1CCN(c2ccccc2)CC1 reported="> 100 µM"
molecule="Clc1nc2c(C#Cc3ccccc3)ncnc2n1C1CCCCO1 (stereo unspecified)" reported="20.9 µM"
molecule="NC(=S)N/N=C1\\CCCC1C(O)(C(F)(F)Cl)C(F)(F)Cl (stereo unspecified)" reported="> 10 µM"
molecule=O=P(O)(O)C=C=C1CCCCC1 reported="> 100 µM"
molecule=O=C(O)COc1cc(-c2ccccc2)nc2ccccc12 reported="> 100 µM"
molecule=Clc1ccc2ns[s+]c2c1 reported="> 100 µM"
molecule=COC(=O)[C@](C)(Cc1ccccc1)NC(=O)[C@@H](C)N1[C@@H](c2ccccc2)COC1(C)C reported="> 100 µM"
molecule=CC[C@]1(O)C[C@@H]2CN(CCc3c([nH]c4ccccc34)[C@@](C(=O)OC)(c3cc4c(cc3OC)N(C)[C@H]3[C@@](O)(C(N)=O)[C@H](O)[C@]5(CC)[C@@H]6C[C@@H]6CN6CC[C@]43[C@@H]65)C2)C1 reported="> 18.2 µM"
molecule=COC(=O)c1cc(-c2ccc(OC)cc2)[nH]c1N/N=C/c1c(Cl)cccc1Cl reported="0.887 µM"
molecule=CCOC(=O)Cc1csc(N=Nc2c(O)[nH]c3ccccc23)n1 reported="> 100 µM"
molecule=COC(=O)c1cc(C)ccc1/C=C1\Cc2c(C)cc(C)cc2C1=O reported="> 100 µM"
molecule="CCC1(OC(=O)CN)C(=O)OCc2c1cc1n(c2=O)Cc2cc3cc4c(cc3nc2-1)OCO4 (stereo unspecified)" reported="> 100 µM"
molecule=COc1ccccc1NC(=S)N/N=C/c1ccccn1 reported="> 100 µM"
molecule=Cc1ccc(/C=N\NC(=O)c2ccncc2)s1 reported="> 100 µM"
molecule=COc1cc2oc(-c3ccc4c(c3)OCO4)c(OC)c(=O)c2c(O)c1OC reported="> 50 µM"
molecule=COc1cc(C)cc2c(-c3c(O)cc(O)c4c3C[C@H](C)N[C@H]4C)cc(-c3cc(-c4c(O)cc(O)c5c4C[C@H](C)N[C@H]5C)c4cc(C)cc(OC)c4c3O)c(O)c12 reported="> 100 µM"
molecule="CCOC(=O)c1c(N)sc2c1C(C(=O)OCC)CCC2 (stereo unspecified)" reported="> 100 µM"
molecule=COc1cc2c(c(OC)c1)C(=O)O[C@H](C)CCCC/C=C/C2 reported="> 32.6 µM"
molecule="COc1cccc(C23CCCC(C2)N(C)CC3OC(=O)c2ccccc2)c1OC (stereo unspecified)" reported="> 100 µM"
molecule=C[C@]12CC[C@@H](OC(=O)N(CCCl)N=O)C[C@@H]1CC[C@@H]1[C@@H]2CC[C@]2(C)C(=O)CC[C@@H]12 reported="19.2 µM"
molecule=Nc1cc2[nH]cnc2c(=O)[nH]1 reported="> 300 µM"
molecule="CS(=O)(=O)[O-].CS(=O)(=O)[O-].NC1CCCCC1N.[Pt+4] (stereo unspecified)" reported="> 100 µM"
molecule=Cc1cc2nc(-c3c(N)ncc(C#N)c3-c3ccc(Cl)cc3)[nH]c2cc1C reported="> 100 µM"
molecule=COc1cc2c3c(ncc2c(OC)c1OC)-c1cc2c(cc1C3)OCO2 reported="59 µM"
molecule=COc1cc2oc(=O)cc(C)c2c(OC)c1OC(C)=O reported="> 100 µM"
molecule=N#C/C(C(=O)Nc1ccccc1)=C(/N)N1CCCCC1 reported="> 100 µM"
molecule=CCN(CCCl)c1cccc(NC(=O)c2ccc(C(=O)Nc3cccc(CN(C)C)c3)cc2)c1 reported="1.09 µM"
molecule=O=C(O)c1cccc(/C=C/c2ccccc2)c1 reported="> 100 µM"
molecule=Nn1c(Sc2nc3ccccc3c(=O)n2N)nc2ccccc2c1=O reported="27.4 µM"
molecule="COc1nc(C)cc2c(=O)n(-c3ccccc3)n(CC(O)CN3CCN(c4ccc(Cl)cc4)CC3)c(=O)c12 (stereo unspecified)" reported="> 50 µM"
molecule="C=CCc1ccccc1C1CC2(C(=O)OC)OC1C(C(=O)OC)=C2C(=O)OC (stereo unspecified)" reported="> 10 µM"
molecule=COC1(OC)C=CC(=O)C=C1 reported="8.42 µM"
molecule=Cc1ccc2sc3ccc(N)cc3c(=O)c2c1 reported="> 100 µM"
molecule="CC1(C)C(=O)C=CC2(C)C1CC(O)C1(C)C2CCC2(C)C(c3ccoc3)OC(=O)C3OC321 (stereo unspecified)" reported="> 100 µM"
molecule=N=c1ccc2nc3c(cc(N)c4ccccc43)oc-2c1 reported="0.342 µM"
molecule=COC(=O)c1ccc2c(c1)C(=O)c1c-2n(CCCN)c(=O)c2cc(OC)c(OC)cc12 reported="29.3 µM"
molecule="COc1cc2cc(C(=O)N3CC(CCl)c4c3cc(NC(=O)C(C)Nc3c([N+](=O)[O-])cc(C(=O)NCCN(C)C)cc3[N+](=O)[O-])c3ccccc43)[nH]c2c(OC)c1OC (stereo unspecified)" reported="0.127 µM"
molecule=C/C(=C(/c1ccc(O)cc1)c1ccc(Cl)cc1)c1ccccc1 reported="2.07 µM"
molecule=Cn1cc(C2=C(c3cn(C)c4cc(N)ccc34)C(=O)NC2=O)c2ccccc21 reported="> 16.8 µM"

* * *

# Test system: U251 CNS
# Assay details: NCI tumour cell line growth inhibition, 48 h
Recorded TGI for the following compounds
Endpoint label: TGI

query_smiles=CC(=O)c1cc(-c2ccccc2N)n(-c2ccc3c(c2)OCO3)c1C reported="> 100 µM"
query_smiles=CCC[CH2][Sn]1([CH2]CCC)[O]C(=O)c2ccc(N)cc2[O]1 reported="1.81 µM"
query_smiles=COC(=O)c1ccc(C(=O)OC)c2nc3cc(C)ccc3nc12 reported="> 100 µM"
query_smiles=O=C(O)COc1cc(-c2ccccc2)nc2ccccc12 reported="> 100 µM"
query_smiles=Cc1nc2c(n1-c1ccccc1)C(=O)c1ccccc1C2=O reported="> 100 µM"
query_smiles=CCCCCCNC(=O)n1cc(F)c(=O)[nH]c1=O reported="17.5 µM"

* * *

# Tested on: 786-0 renal
# Assay details: NCI tumour cell line growth inhibition, 48 h; in the data active means GI50 below about 0.43 µM; inactive means the rest
Outcomes: active, inactive

compound=C/C(=C(/c1ccc(O)cc1)c1ccc(Cl)cc1)c1ccccc1 class_name=inactive
compound=CC[C@]1(O)C[C@@H]2CN(CCc3c([nH]c4ccccc34)[C@@](C(=O)OC)(c3cc4c(cc3OC)N(C)[C@H]3[C@@](O)(C(N)=O)[C@H](O)[C@]5(CC)[C@@H]6C[C@@H]6CN6CC[C@]43[C@@H]65)C2)C1 class_name=active
compound=COc1cc(/C=C2\CN(C(=O)CCN3CCC(=NO)CC3)C/C(=C\c3cc(OC)c(OC)c(OC)c3)C2=O)cc(OC)c1OC class_name=active
compound=CCCCCCNC(=O)n1cc(F)c(=O)[nH]c1=O class_name=inactive
compound=CCOC(=O)Nc1nc2cc(OCC)ccc2s1 class_name=inactive
compound=COc1cc2c(c(OC)c1OC)-c1ccc(O)c(=O)cc1[C@@H](NC(C)=O)CC2 class_name=inactive
compound=CC(=O)c1cccc(-c2cccc(-c3ccn(CCN4CCOCC4)n3)c2)c1 class_name=inactive
compound="COc1cc(/C=C2\\CC3C4CC=C5C[C@@H](O)CC[C@]5(C)C4CC[C@]3(C)C2=O)ccc1OCCCn1ccnc1 (stereo partly specified)" class_name=inactive
compound=CNCCNc1nc2ccccc2c2c(=O)c3cc(OC)ccc3sc12 class_name=inactive
compound=COc1cc2c3c(ncc2c(OC)c1OC)-c1cc2c(cc1C3)OCO2 class_name=inactive
compound=COC(=O)c1cc(-c2ccc(OC)cc2)[nH]c1N/N=C/c1c(Cl)cccc1Cl class_name=active
compound=Oc1c(CN2CCCC2)cc(CSCc2ccccc2)c2cccnc12 class_name=inactive
compound=CCOC(=O)c1c2c(n(Cc3ccccc3)c1C)-c1nc(Cc3ccccc3)[nH]c1C(=O)C2=O class_name=inactive
compound=CCC[CH2][Sn]1([CH2]CCC)[O]C(=O)c2ccc(N)cc2[O]1 class_name=active
compound=CCCCNC(=O)Oc1ccc(/C(=C(/CC)Cc2ccccc2)c2ccc(OCCN3CCCCCC3)cc2)cc1 class_name=inactive
compound=CCCCCCNC(=O)Oc1ccc(/C(=C(/C)Cc2ccc(OC)cc2)c2ccc(OCCN(C)C)cc2)cc1 class_name=inactive

* * *

# Test system: UACC-257 melanoma
# Assay details: NCI tumour cell line growth inhibition, 48 h
Endpoint label: GI50

query_smiles=CC[C@@]12C=CCN3CC[C@]4(c5cc(NC(=O)COc6cc(OCC(=O)Nc7cc8c(cc7OC)N(C)[C@H]7[C@@](O)(C(=O)OC)[C@H](OC(C)=O)[C@]9(CC)C=CCN%10CC[C@]87[C@@H]%109)cc7oc(-c8ccccc8)cc(=O)c67)c(OC)cc5N(C)[C@@H]4[C@](O)(C(=O)OC)[C@H]1OC(C)=O)[C@H]32 study_target="UACC-257 melanoma" reported="> 100 µM"
query_smiles=COc1ccc(/C=C\c2cc(OC)c(OC)c(OC)c2)c(NS(=O)(=O)c2ccc(Cl)cc2)c1O study_target="UACC-257 melanoma" reported="14.2 µM"
query_smiles=COC(=O)c1ccc(CN2C(=O)C(Cl)=C(Nc3ccc(OC)c(Cl)c3)C2=O)cc1 study_target="UACC-257 melanoma" reported="19.4 µM"
query_smiles=O=C(N/N=C/c1ccc(Cl)cc1)c1[nH]c2ccc(Cl)cc2c1-c1ccccc1 study_target="UACC-257 melanoma" reported="7.42 µM"
